// data source = paper PMC9482650

- Target: GRIP2_6, Q9C0E4
- Sequence (Q9C0E4 648-740): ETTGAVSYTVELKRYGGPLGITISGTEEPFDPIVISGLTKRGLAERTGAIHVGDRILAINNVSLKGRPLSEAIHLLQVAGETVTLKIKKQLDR
- Assay Procedure: holdup assay
- Design: key: below the threshold = too weak to quantify, mostly under pKd 3.1 to 4
- Condition Details: plain residues with an end cap or a label only (N-terminal biotin on a linker: ahx)
Reported Property: pKd

Reference set, count: 6
{"Binder": "RRRKRKRTYL [HPV49-L2, P36762]", "pKd": "below the threshold"}
{"Binder": "ESLLLGPSNF [SHROOM4, Q9ULL8]", "pKd": "below the threshold"}
{"Binder": "PSASCAVTAA [PDLIM4, P50479;P50479-2]", "pKd": "below the threshold"}
{"Binder": "TVICWPGSLV [LNX2, Q8N448]", "pKd": "below the threshold"}
{"Binder": "NRKREIFSNF [NHERF2, Q15599]", "pKd": "below the threshold"}
{"Binder": "HNAFLSVTTV [PDZRN4, Q6ZMN7]", "pKd": 3.56}

What does the record list as pKd for SDSSGQEYSL [KCTD3, Q9Y597] ?
3.6

# repeat for RAVEEEESRF [PSCDBP, O60759]
below the threshold

# repeat for GYDWGPATDL [TJP3, O95049]
below the threshold

# repeat for LSDPSVSTVV [GRIN1, Q05586;Q05586-2]
below the threshold
